Sourced from patent US20240238283A1

# subject of test: P-gp (Homo sapiens, UniProt P08183)
# Construct: endogenous in cells; host or cells: CaCO2 (Caco-2) cells, 21-day transwell monolayer
# Sequence (P08183 whole entry): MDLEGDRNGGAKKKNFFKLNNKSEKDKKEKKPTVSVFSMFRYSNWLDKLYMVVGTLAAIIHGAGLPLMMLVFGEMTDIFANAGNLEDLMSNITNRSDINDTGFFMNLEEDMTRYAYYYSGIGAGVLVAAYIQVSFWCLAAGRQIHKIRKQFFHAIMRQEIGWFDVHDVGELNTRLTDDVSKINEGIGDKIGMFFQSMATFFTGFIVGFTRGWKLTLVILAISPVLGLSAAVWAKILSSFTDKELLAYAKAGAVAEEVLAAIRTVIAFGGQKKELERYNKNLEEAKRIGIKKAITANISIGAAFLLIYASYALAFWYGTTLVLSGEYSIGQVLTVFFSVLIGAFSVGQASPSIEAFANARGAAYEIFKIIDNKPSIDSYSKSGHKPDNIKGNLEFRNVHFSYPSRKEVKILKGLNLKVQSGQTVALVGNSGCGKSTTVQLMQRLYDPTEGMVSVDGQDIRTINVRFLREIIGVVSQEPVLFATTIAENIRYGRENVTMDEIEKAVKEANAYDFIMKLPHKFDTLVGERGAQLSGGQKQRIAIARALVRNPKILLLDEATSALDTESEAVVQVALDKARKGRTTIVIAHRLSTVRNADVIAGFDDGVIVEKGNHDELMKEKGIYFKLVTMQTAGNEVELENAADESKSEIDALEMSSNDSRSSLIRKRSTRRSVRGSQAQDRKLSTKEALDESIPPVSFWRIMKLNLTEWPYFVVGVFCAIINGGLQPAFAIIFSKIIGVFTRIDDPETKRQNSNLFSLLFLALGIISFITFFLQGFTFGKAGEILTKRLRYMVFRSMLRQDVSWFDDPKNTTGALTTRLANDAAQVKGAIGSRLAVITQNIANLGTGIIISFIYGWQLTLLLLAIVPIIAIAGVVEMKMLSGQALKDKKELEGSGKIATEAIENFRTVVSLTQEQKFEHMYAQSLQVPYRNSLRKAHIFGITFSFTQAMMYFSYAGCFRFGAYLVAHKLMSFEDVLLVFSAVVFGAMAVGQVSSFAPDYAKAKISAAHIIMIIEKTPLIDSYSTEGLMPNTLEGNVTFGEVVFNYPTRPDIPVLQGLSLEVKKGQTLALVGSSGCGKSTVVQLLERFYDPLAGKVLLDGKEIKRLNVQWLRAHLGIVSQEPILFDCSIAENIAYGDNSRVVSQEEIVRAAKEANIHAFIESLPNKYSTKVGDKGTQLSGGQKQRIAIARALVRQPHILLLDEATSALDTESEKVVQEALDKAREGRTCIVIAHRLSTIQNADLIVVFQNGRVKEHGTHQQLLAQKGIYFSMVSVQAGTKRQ
# run description: Permeability study in CaCO2 cells, efflux ratio by P-gp
# Assay type: in vitro ADME
# condition label: human, Caco-2; 1 μM, CaCO2 cells
property: Papp B→A at 180 min, 1 μM (×10⁻⁶ cm/s)
Output spec: scalar in ×10⁻⁶ cm/s, unitless text.

Request: Quote Papp B→A at 180 min, 1 μM reported for N#Cc1ccc(N2CCN(Cc3ccc4c5c(c(=O)[nH]c4c3)CCCN5)CC2)nc1 [citrate of the compound of Formula I] please.
Result: 44.1
